Every entry's value here was drawn from ChEMBL document CHEMBL1255178.

Biological target: Serine/threonine-protein kinase mTOR (Homo sapiens)
property.measured: Ki (nM)

[1] Cc1ccc(-c2nc3c(C)nc(N)nc3n([C@H]3CC[C@H](O)CC3)c2=O)cn1
[2] Cc1nc(N)nc2c1nc(-c1ccn[nH]1)c(=O)n2C(C)C
Which value of Ki is smaller, the one for 1 or the one for 2 ? Your choice should be expressed through its label.
1
(1: 0.85 nM, 2: 6 nM)
